ASSAY NOTES: folding enthalpy; higher = less favourable; fluorescence melt of hairpins on a sequencing array, two-state fit
EXPERIMENTAL PARAMETERS: sodium 0.088 M
MEASUREMENT TYPE: folding enthalpy (kcal/mol)
Note: unit kcal/mol is implicit; provide only the numeric part.

Consider the following illustrative entries.
> print(dat)
                          query.sequence  measurement.type  unit.of.measurement  quantitative.result
1  GCATCGCGAAAGCCAAGC ((.(.((....)).).))  folding enthalpy             kcal/mol                 -9.2
2      GATCACCGGCGTGATC ((((((....))))))  folding enthalpy             kcal/mol                -37.7
3  GGAAACGGAAACGTTCCC ((.((((....)))).))  folding enthalpy             kcal/mol                -23.1

Recorded folding enthalpy (sequence GATCAACGATTGATC ((((((...)))))) ): -19.8

Source of measurements: the array DNA melting data of Ke et al. (doi:10.1101/2024.01.08.574731)
